# TARGET DESC: IRAK1 (Homo sapiens, UniProt P51617)
# Sequence (P51617 whole entry): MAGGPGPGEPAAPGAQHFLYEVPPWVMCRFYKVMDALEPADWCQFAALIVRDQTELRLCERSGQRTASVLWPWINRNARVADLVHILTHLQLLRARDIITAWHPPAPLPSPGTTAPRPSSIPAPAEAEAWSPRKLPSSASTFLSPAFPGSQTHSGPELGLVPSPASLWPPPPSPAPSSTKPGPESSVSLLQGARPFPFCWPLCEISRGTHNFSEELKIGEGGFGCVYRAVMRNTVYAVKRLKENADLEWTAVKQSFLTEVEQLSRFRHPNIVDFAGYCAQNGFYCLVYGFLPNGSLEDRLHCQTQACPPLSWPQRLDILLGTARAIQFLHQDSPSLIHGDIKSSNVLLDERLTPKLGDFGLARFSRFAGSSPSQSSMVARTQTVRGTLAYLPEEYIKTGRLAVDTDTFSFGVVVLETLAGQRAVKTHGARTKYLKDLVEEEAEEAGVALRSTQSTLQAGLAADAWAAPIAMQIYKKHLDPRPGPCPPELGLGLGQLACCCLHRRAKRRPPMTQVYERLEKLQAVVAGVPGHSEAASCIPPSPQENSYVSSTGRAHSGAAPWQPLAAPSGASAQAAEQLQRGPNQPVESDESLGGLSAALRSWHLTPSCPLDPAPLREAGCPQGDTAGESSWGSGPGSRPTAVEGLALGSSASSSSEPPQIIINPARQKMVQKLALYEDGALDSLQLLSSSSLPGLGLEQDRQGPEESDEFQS
# ASSAY COMMENT: RBC HotSpot kinase inhibition assay, IRAK1
# Type: biochemical
# SETTINGS: Table 11; isolated kinase, 33P-ATP, 2 h
pIC50: −log10 of the molar value.
READOUT KIND: pIC50

[
  {
    "ENTRY SMILES": "COc1cn2ncc(-c3nc(N[C@@H]4CCCNC4)c(C#N)cc3F)c2nc1C(C)(C)O",
    "TARGET DESC": "IRAK1 (Homo sapiens, UniProt P51617)",
    "RELATION": "=",
    "OBS VALUE": 8.52
  },
  {
    "ENTRY SMILES": "COc1cn2ncc(-c3nc(N[C@@H]4CCCNC4)c(C#N)cc3F)c2nc1C1CC1",
    "TARGET DESC": "IRAK1 (Homo sapiens, UniProt P51617)",
    "RELATION": ">",
    "OBS VALUE": 9.30
  },
  {
    "ENTRY SMILES": "COc1cn2ncc(-c3nc(N[C@H]4CNCC[C@@H]4F)c(F)cc3F)c2nc1C1CC1",
    "TARGET DESC": "IRAK1 (Homo sapiens, UniProt P51617)",
    "RELATION": ">",
    "OBS VALUE": 9.30
  },
  {
    "ENTRY SMILES": "COc1cn2ncc(-c3nc(N[C@H]4CNCC[C@@H]4F)ccc3F)c2nc1C1CC1",
    "TARGET DESC": "IRAK1 (Homo sapiens, UniProt P51617)",
    "RELATION": "=",
    "OBS VALUE": 9.10
  },
  {
    "ENTRY SMILES": "COc1cn2ncc(-c3cccc(N[C@@H]4CCCNC4)n3)c2nc1C1CC1",
    "TARGET DESC": "IRAK1 (Homo sapiens, UniProt P51617)",
    "RELATION": "=",
    "OBS VALUE": 6.84
  },
  {
    "ENTRY SMILES": "COc1cn2ncc(-c3nc(N[C@H]4CNCC[C@@H]4F)c(C#N)cc3F)c2nc1C1CC1",
    "TARGET DESC": "IRAK1 (Homo sapiens, UniProt P51617)",
    "RELATION": ">",
    "OBS VALUE": 9.30
  },
  {
    "ENTRY SMILES": "COc1cn2ncc(-c3nc(N[C@@H]4CCCNC4)c(F)cc3F)c2nc1C(C)(C)O",
    "TARGET DESC": "IRAK1 (Homo sapiens, UniProt P51617)",
    "RELATION": "=",
    "OBS VALUE": 8.52
  },
  {
    "ENTRY SMILES": "COc1cn2ncc(-c3ccc(F)c(N[C@H]4CNCC[C@@H]4F)n3)c2nc1C1CC1",
    "TARGET DESC": "IRAK1 (Homo sapiens, UniProt P51617)",
    "RELATION": "=",
    "OBS VALUE": 8.40
  },
  {
    "ENTRY SMILES": "COc1cn2ncc(-c3nc(N[C@@H]4CCCNC4)c(F)cc3F)c2nc1C1CC1",
    "TARGET DESC": "IRAK1 (Homo sapiens, UniProt P51617)",
    "RELATION": ">",
    "OBS VALUE": 9.30
  }
]
